Tested on: CD34 + CD45RA- cells
protocolDescription: Expansion of CD34+CD45RA- cells compared to DMSO (EC50)
Assay type: cell-based
testContext: concentration of compound necessary to expand 50% more of CD34+CD45RA- cells as compared to cells treated with DMSO
pEC50: −log10 of the molar value.
parameter: pEC50

# annotated cases, reported pEC50 shown
[[record]]
compound = "CN(CCC[N+](C)(C)C)c1nc(Cc2ccccc2)nc2[nH]c3cc(-c4nnn(C)n4)ccc3c12 [Compound 26]"
experimentalvalue = 6.32

[[record]]
compound = "COC(=O)c1ccc2c(c1)[nH]c1nc(Cc3ccccc3)nc(NCCNS(C)(=O)=O)c12 [Compound 33]"
experimentalvalue = 7.48


1: [H]/N=C(/N)NCCNc1nc(Cc2ccccc2)nc2[nH]c3cc(C(=O)OC)ccc3c12 [Compound 36]
2: CCNCCNc1nc(Cc2ccccc2)nc2[nH]c3cc(C(=O)OC)ccc3c12 [Compound 57]
3: CNS(=O)(=O)c1cccc(Nc2ncnc3[nH]c4cc(C(=O)OC)ccc4c23)c1 [Compound 43]
Arrange items by their pEC50 values in increasing order. Rank the items, then write their labels in that order.
3, 1, 2
(3: 6.58, 1: 7.17, 2: 8.32)

I: C#Cc1cccc(Cc2nc(NCCN(C)CCN)c3c(n2)[nH]c2cc(-c4nnn(C)n4)ccc23)c1 [Compound 32]
II: COC(=O)c1ccc2c(c1)[nH]c1nc(Cc3ccccc3)nc(NCC(O)CN3CCCCC3)c12 (stereo not shown) [Compound 10]
Select the item with the higher value of pEC50 from the options I and II listed. When you have decided, please share the label of that item.
II
(II: 8.15, I: 6.98)

a: Cn1nnc(-c2ccc3c(c2)[nH]c2ncnc(NCCCN4CCC(O)CC4)c23)n1 [Compound 28]
b: COC(=O)c1ccc2c(c1)[nH]c1nc(Cc3ccccc3)nc(NCCCO)c12 [Compound 47]
# query: argmin of pEC50 over a and b When you have decided, please share the label of that item.
a
(a: 6.56, b: 7.59)

1: COC(=O)c1ccc2c(c1)[nH]c1nc(Cc3ccccc3)nc(NCCC#N)c12 [Compound 58]
2: Cn1nnc(-c2ccc3c(c2)[nH]c2nc(Cc4ccccc4)nc(NCCOCCO)c23)n1 [Compound 46]
# query: argmin of pEC50 over 1 and 2 When you have decided, please share the label of that item.
2
